pIC50: −log10 of the molar value.
Collected from the literature: pIC50 of various compounds toward Tyrosine-protein phosphatase non-receptor type 2 (Homo sapiens).

{"columns": ["compound", "pIC50"],
 "data": [
  ["O=C1CN(c2c(O)ccc(-c3cnn(C(=O)NC4CC4)c3)c2F)S(=O)(=O)N1", "≥ 6.00"],
  ["Cc1ncc(-c2ccc(O)c(N3CC(=O)NS3(=O)=O)c2F)o1", "≥ 6.00"],
  ["O=C1CN(c2c(O)ccc(-c3cnn(Cc4ccccc4)c3)c2F)S(=O)(=O)N1", "≥ 6.00"],
  ["CC(C)CCC1C=C(c2ccc(O)c(N3CC(=O)NS3(=O)=O)c2F)CN1 (centres unmarked)", "≥ 6.00"],
  ["Cc1cc(-c2ccc(O)c(N3CC(=O)NS3(=O)=O)c2F)on1", "≥ 6.00"],
  ["CC(C)CCNc1ccc2cc(O)c(C3=CC(=O)NS3(=O)=O)cc2n1", "5.00 to 6.00"],
  ["COc1cc(COc2cc(C(N)=O)cc3c(Br)c(C(F)(F)P(=O)(O)O)sc23)ccc1C#N", 6.95],
  ["O=C1CN(c2c(O)ccc(-c3cc(CC(F)F)n[nH]3)c2F)S(=O)(=O)N1", "≥ 6.00"],
  ["O=C1CN(c2c(O)cc(CN[C@H]3CCCOC3)cc2F)S(=O)(=O)N1", 6.90],
  ["CC(C)CCOC1CCCN(c2cc(O)c(N3CC(=O)NS3(=O)=O)c(F)c2)C1 (centres unmarked)", "≥ 6.00"],
  ["CC(NC(=O)c1ccc2sc(C(F)(F)P(=O)(O)O)c(Br)c2c1)c1cnccn1 (centres unmarked)", 5.46],
  ["O=C1CN(c2c(O)cc(N3CCNCC3)cc2F)S(=O)(=O)N1", 6.17],
  ["O=C1CN(c2cc3nc(NCCc4ccccn4)ccc3cc2O)S(=O)(=O)N1", "≥ 6.00"],
  ["O=P(O)(O)C(F)(F)c1sc2c(OCCCC(F)(F)F)cc(-c3nnc(C4CC4)[nH]3)cc2c1Br", 8.57],
  ["Cn1c(=O)c(NCCC2CCC(F)(F)CC2)cc2cc(N3CC(=O)NS3(=O)=O)c(O)cc21", "≥ 6.00"],
  ["O=C1CN(c2c(O)ccc(-c3cc(N4CCC4)n[nH]3)c2F)S(=O)(=O)N1", "≥ 6.00"],
  ["O=C1CN(c2c(O)ccc(C3=CCN(S(=O)(=O)C4CC4)CC3)c2F)S(=O)(=O)N1", "≥ 6.00"]
]}

* * *

Collected from the literature: IC50 of various molecules toward Tyrosine-protein phosphatase non-receptor type 2 (Homo sapiens).

{"columns": ["compound", "relationSign", "IC50 [µM]"],
 "data": [
  ["O=C(NCCn1ccnn1)c1ccc2sc(C(F)(F)P(=O)(O)O)c(Br)c2c1", "=", 5.66],
  ["O=C1CN(c2cc3nc(OCCc4ccc(F)cc4)ccc3cc2O)S(=O)(=O)N1", "≤", 1],
  ["O=C1CN(c2c(O)ccc(-c3cn(Cc4cccnc4)cn3)c2F)S(=O)(=O)N1", "≤", 1],
  ["CC(C)CCOc1ccc2cc(O)c(N3CC(=O)NS3(=O)=O)c(F)c2n1", "≤", 1],
  ["CC1(n2cc(-c3ccc(O)c(N4CC(=O)NS4(=O)=O)c3F)cn2)CC1", "≤", 1],
  ["O=C(N[C@H]1CC[C@@H](C(F)(F)F)CC1)c1ccc2sc(C(F)(F)P(=O)(O)O)c(Br)c2c1", "=", 6.75],
  ["COc1ccc(COc2cc(C(N)=O)cc3c(Br)c(C(F)(F)P(=O)(O)O)sc23)c(C(F)(F)F)c1", "=", 0.0757],
  ["COCCN(CCOC)C(=O)c1ccc2sc(C(F)(F)P(=O)(O)O)c(Br)c2c1", "=", 1.33]
]}

* * *

pIC50: −log10 of the molar value.
Collected from the literature: pIC50 of various molecules toward Tyrosine-protein phosphatase non-receptor type 2 (Homo sapiens, UniProt P17706).

{"columns": ["molecule", "relationSign", "pIC50"],
 "data": [
  ["O=C1CN(c2c(O)ccc(-c3ccc4cccnc4c3)c2F)S(=O)(=O)N1", "≥", 6.00],
  ["CN(C)c1ccc(-c2cc(O)c(N3CC(=O)NS3(=O)=O)c(F)c2)cn1", "=", 7.05],
  ["O=C(Nc1ccc2sc(C(F)(F)P(=O)(O)O)c(Br)c2c1)C(F)(F)F", "=", 5.20],
  ["O=C1CN(c2c(O)ccc(-c3ccc(N4CCCC4)nc3)c2F)S(=O)(=O)N1", "≥", 6.00],
  ["O=C1CN(c2c(O)ccc(C3=CC(=O)OC3)c2F)S(=O)(=O)N1", "≥", 6.00],
  ["O=C1CN(c2c(O)ccc(C3=CC(COC(F)F)NC3)c2F)S(=O)(=O)N1 (centres unmarked)", "≥", 6.00],
  ["Cc1c(C(F)(F)P(=O)(O)O)sc2c(OCCCC(C)(C)O)cc(C(N)=O)cc12", "=", 6.96],
  ["CC(C)(O)CCOc1ccc2c(Br)c(C(F)(F)P(=O)(O)O)sc2c1", "=", 4.36]
]}

* * *

Collected from the literature: pIC50 of various molecules toward Tyrosine-protein phosphatase non-receptor type 2 (Homo sapiens).
pIC50: −log10 of the molar value.

{"columns": ["compound", "experimentalTarget", "pIC50"],
 "data": [
  ["O=C1CN(c2c(O)ccc(C3=CCOC3)c2F)S(=O)(=O)N1", "Tyrosine-protein phosphatase non-receptor type 2 (Homo sapiens)", "≥ 6.00"],
  ["O=C1CN(c2c(O)ccc(-c3cc(CCC4CCCCC4)n[nH]3)c2F)S(=O)(=O)N1", "Tyrosine-protein phosphatase non-receptor type 2 (Homo sapiens)", "≥ 6.00"],
  ["Cc1noc(C)c1CCNC(=O)c1ccc2sc(C(F)(F)P(=O)(O)O)c(Br)c2c1", "Tyrosine-protein phosphatase non-receptor type 2 (Homo sapiens)", 5.19],
  ["CC(C)CCc1ncc(-c2ccc(O)c(N3CC(=O)NS3(=O)=O)c2F)[nH]1", "Tyrosine-protein phosphatase non-receptor type 2 (Homo sapiens)", "≥ 6.00"],
  ["CC(C)(NC(=O)c1ccc2sc(C(F)(F)P(=O)(O)O)c(Br)c2c1)c1ncn(-c2ccccc2)n1", "Tyrosine-protein phosphatase non-receptor type 2 (Homo sapiens)", 5.06],
  ["O=C1CN(c2c(O)ccc(-c3cc(C(=O)N4CCC4)n[nH]3)c2F)S(=O)(=O)N1", "Tyrosine-protein phosphatase non-receptor type 2 (Homo sapiens)", "≥ 6.00"],
  ["O=C1CN(c2c(O)ccc(-c3cn(CC4CCCCC4)nc3F)c2F)S(=O)(=O)N1", "Tyrosine-protein phosphatase non-receptor type 2 (Homo sapiens)", "≥ 6.00"],
  ["CNC(=O)[C@H]1CC[C@H](NCc2cc(O)c(N3CC(=O)NS3(=O)=O)c(F)c2)CC1", "Tyrosine-protein phosphatase non-receptor type 2 (Homo sapiens)", 6.42]
]}

* * *

Collected from the literature: pIC50 of various compounds toward Tyrosine-protein phosphatase non-receptor type 2 (Homo sapiens, UniProt P17706).
pIC50: −log10 of the molar value.

{"columns": ["compound", "pIC50"],
 "data": [
  ["O=C1CN(c2c(O)cc(CN3CCOCC3)cc2F)S(=O)(=O)N1", 7.15],
  ["CC(C)c1cc(-c2ccc(O)c(N3CC(=O)NS3(=O)=O)c2F)nn1C", "≥ 6.00"],
  ["CN1CCCC(COc2ccc3cc(O)c(N4CC(=O)NS4(=O)=O)c(F)c3n2)C1 (centres unmarked)", "≥ 6.00"],
  ["O=C1CN(c2c(O)ccc(-c3ccc(OCC4CC4)nc3)c2F)S(=O)(=O)N1", "≥ 6.00"],
  ["O=C(Nc1ccc(Cn2cccn2)cc1)c1ccc2sc(C(F)(F)P(=O)(O)O)c(Br)c2c1", 5.75],
  ["CC(C)CCn1cc(-c2ccc(O)c(N3CC(=O)NS3(=O)=O)c2F)c(=O)[nH]1", "≥ 6.00"],
  ["O=C(Nc1ccccc1)c1ccc2sc(C(F)(F)P(=O)(O)O)c(Br)c2c1", 5.52],
  ["CC1NCC=C1c1ccc(O)c(N2CC(=O)NS2(=O)=O)c1F (centres unmarked)", "< 6.00"]
]}

* * *

Collected from the literature: IC50 of various compounds toward Tyrosine-protein phosphatase non-receptor type 2 (Homo sapiens, UniProt P17706).

{"columns": ["compound", "experimentalTarget", "IC50"],
 "data": [
  ["CC(C)CCN(C)c1ccc2cc(O)c(N3CC(=O)NS3(=O)=O)cc2n1", "Tyrosine-protein phosphatase non-receptor type 2 (Homo sapiens, UniProt P17706)", "1 to 10 µM"],
  ["CC(C)CNC(=O)c1ccc2sc(C(F)(F)P(=O)(O)O)c(Br)c2c1", "Tyrosine-protein phosphatase non-receptor type 2 (Homo sapiens, UniProt P17706)", "9.7 µM"],
  ["O=C1CN(c2c(O)ccc(-c3cc(C4CC4)n(CC4CCCN4)n3)c2F)S(=O)(=O)N1 (centres unmarked)", "Tyrosine-protein phosphatase non-receptor type 2 (Homo sapiens, UniProt P17706)", "≤ 1 µM"],
  ["Cn1c(=O)c(O)cc2c(F)c(N3CC(=O)NS3(=O)=O)c(O)cc21", "Tyrosine-protein phosphatase non-receptor type 2 (Homo sapiens, UniProt P17706)", "1 to 10 µM"],
  ["O=C(NCc1ccc(C(F)(F)F)nc1)c1ccc2sc(C(F)(F)P(=O)(O)O)c(Br)c2c1", "Tyrosine-protein phosphatase non-receptor type 2 (Homo sapiens, UniProt P17706)", "3.1 µM"],
  ["Cc1c(C(F)(F)P(=O)(O)O)sc2c(OCCCC(F)(F)F)cc(C(N)=O)cc12", "Tyrosine-protein phosphatase non-receptor type 2 (Homo sapiens, UniProt P17706)", "0.119 µM"],
  ["O=C1CN(c2c(O)ccc(-c3ccc4ncccc4c3)c2F)S(=O)(=O)N1", "Tyrosine-protein phosphatase non-receptor type 2 (Homo sapiens, UniProt P17706)", "≤ 1 µM"],
  ["CC(C)CCCN1CCc2cc(O)c(N3CC(=O)NS3(=O)=O)cc2C1=O", "Tyrosine-protein phosphatase non-receptor type 2 (Homo sapiens, UniProt P17706)", "1 to 10 µM"]
]}
